experiment: Plasma kinetics in rat following intravenous and oral administration; type: in vivo, Sprague Dawley rats; details: male, Sprague Dawley, rat, plasma, iv, 10 mg/kg, single intravenous 10 mg/kg, male rats, 6 h, mean of 3; read-out: Mean Concentration in plasma
parameter: concentration at 6 h (ng/mL)
Numeric answer only, unit ng/mL assumed.

Here are 2 compounds together with their reported answers.
N=C(N)NN=CC=Cc1cccn1-c1ccccc1Br [Compound 3, acetate]
119
N=C(N)NN=CC=Cc1cccn1-c1ccccc1[N+](=O)[O-] [Compound 2, acetate]
86

What the record says about N=C(N)NN=CC=Cc1cccn1-c1ccc(Cl)cc1 [Compound 1, acetate] : concentration at 6 h is 160

Reference for the values: patent US8058306B2
